test system: HepG2; test: cytotoxicity call (relative viability < 0.9); conditions: 10 µM
The whole screen tested about 39,000 compounds, of which about 3,300 (8.5%) were called active. The list comes from a sample in which actives are over-represented; it also holds close analogues and randomly drawn compounds.
Outcome (select one): True (active), False (inactive)

Recorded test outcome, item C[C@@H]1CCCCO[C@@H](CN(C)Cc2ccc(C(F)(F)F)cc2)[C@H](C)CN([C@H](C)CO)C(=O)c2cc(NC(=O)NC3CCCCC3)ccc2O1
True

Recorded test outcome, item COC(=O)C1=CO[C@@H](O[C@@H]2O[C@H](CO)[C@@H](O)[C@H](O)[C@H]2O)[C@@H]2[C@@H](C)[C@@H](O)C[C@H]12
False

* * *

tested on: HepG2; experiment: cytotoxicity call (relative viability < 0.9); details: 10 µM
The campaign covered roughly 39,000 compounds. About 3,300 (8.5%) were called active. This excerpt belongs to a sample that is enriched for actives.
Outcome (select one): label 1 for active, label 0 for inactive

As a guide, the following entries are already answered.
C[C@@H]1CN([C@H](C)CO)C(=O)c2c(c3ccccc3n2C)-c2ccccc2CO[C@@H]1CN(C)Cc1ccc(Oc2ccccc2)cc1: label 0
C[C@@H]1CCCCO[C@H](CN(C)Cc2ccccc2)[C@H](C)CN([C@@H](C)CO)C(=O)c2cc(NS(=O)(=O)c3ccc(Cl)cc3)ccc2O1: label 1
CCn1c(C)cn2c3c(=O)n(CCN4CCOCC4)c(=O)n(C)c3nc12: label 0
COc1ccc2c(O[C@H]3CCCC[C@@H]3OC)nccc2c1-n1ccnc1-c1c[nH]c2c(N)c(F)cc(C#N)c12: label 1
C[C@H](CO)N1C[C@H](C)[C@@H](CN(C)Cc2ccc(C(F)(F)F)cc2)Oc2ccc(NC(=O)Cc3cn(C)c4ccccc34)cc2CC1=O: label 0
C[C@H](CO)N1C[C@H](C)[C@@H](CN(C)C(=O)Nc2ccc(F)cc2)OCCCC[C@H](C)Oc2ccc(NC(=O)CCC(F)(F)F)cc2C1=O: label 0
CN(C)CC#Cc1ccc([C@H]2[C@H](CO)N3C(=O)CN(C(=O)CN(C)C)C[C@@H]23)cc1: label 0
C[C@@H]1CN([C@H](C)CO)C(=O)c2cc(NS(C)(=O)=O)ccc2O[C@@H]1CN(C)C(=O)Nc1ccccc1: label 0
C[C@H]1CN([C@@H](C)CO)C(=O)c2cccc(NC(=O)C3CC3)c2O[C@H]1CN(C)S(=O)(=O)c1cn(C)cn1: label 0
CC(C)C[C@@H](NC(=O)CCN)C(=O)O: label 1

Recorded test outcome, item C[C@@H]1CN([C@H](C)CO)C(=O)c2cc(NS(=O)(=O)c3ccc(Cl)cc3)ccc2O[C@@H](C)CCCCO[C@@H]1CN(C)Cc1ccccc1
label 0

* * *

system: HepG2; assay: cytotoxicity call (relative viability < 0.9); conditions: 10 µM
Out of some 39,000 compounds screened, about 3,300 (8.5%) were called active. This excerpt belongs to a sample that is enriched for actives.
Outcome (select one): True = active, False = inactive

Recorded test outcome, item COc1ccc(CN(C)C[C@@H]2Oc3ccc(NC(=O)Nc4ccc(C(F)(F)F)cc4)cc3C(=O)N([C@@H](C)CO)C[C@@H]2C)cc1
True

Recorded test outcome, item CCCC[C@@H](C#N)c1ccccn1
False

Recorded test outcome, item COc1ccc(NC(=O)Nc2ccc3c(c2)C(=O)N([C@H](C)CO)C[C@@H](C)[C@H](CN(C)Cc2ccc(C(F)(F)F)cc2)O3)cc1
True

Recorded test outcome, item COc1ccc(NC(=O)Nc2ccc3c(c2)C(=O)N([C@H](C)CO)C[C@@H](C)[C@@H](CN(C)Cc2ccc(C(F)(F)F)cc2)O3)cc1
False
